# System: Normal Kunming (KM) mice
# Assay summary: multiple OGTT (mOGTT): hypoglycemic duration after a single administration
# Format: in vivo
# Test parameters: monomeric peptides, single injection at the same dose (1.126 nmol), subcutaneous
Non-standard residues stand in square brackets, D forms with d. No end group written: not given here. βAib = beta-Aib residue

Substance: His-βAib-Glu-Gly-Thr-Phe-Thr-Ser-Asp-Val-Ser-Cys-Tyr-Leu-Glu-Gly-Gln-Ala-Ala-Lys-Glu-Phe-Ile-Ala-Trp-Leu-Val-Arg-βAib-Arg-NH2 (H[βAib]EGTFTSDVSCYLEGQAAKEFIAWLVR[βAib]R-NH2; also: disulfide-linked homodimer via Cys12) [G7 series 54]
Hypoglycemic (days): 2
//
Substance: His-βAla-Glu-Gly-Thr-Phe-Thr-Ser-Asp-Val-Ser-Cys-Tyr-Leu-Glu-Gly-Gln-Ala-Ala-Lys[N-ϵ-(N-α-oleoyl-L-γ-glutamy)]-Glu-Phe-Ile-Ala-Trp-Leu-Val-Arg-Gly-Arg-Gly-NH2 (HXEGTFTSDVSCYLEGQAAXEFIAWLVRGRG; beta-amino acid; oleoyl-gamma-Glu on Lys; C-terminal amide; Sequence is synthesized; (2)..(2) Xaa is bAla; (20)..(20) Xaa is 26Lys[N-e-(N-a-oleoyl-L-g-glutamyl)]; (31)..(31) N-terminal) [G6 series 50]
Hypoglycemic (days): 4

---

# System: Normal Kunming (KM) mice
# Assay summary: multiple OGTT (mOGTT): hypoglycemic duration after a single administration
# Format: in vivo
# Test parameters: single injection at the same dose (1.126 nmol), subcutaneous
Positions of bridges follow the written chain, without caps; N, C: chain ends. Non-standard residues stand in square brackets, D forms with d. Chains are numbered I, II in the order given. No end group written: not given here. bAib = not defined here

Substance: 2G2 series 17: disulfide-linked homodimer of monomer SEQ ID NO: 17 (chain 1 H[bAib]EGTFTSDVCSYLEGQAAKEFIAWLVK[bAib]R-NH2; chain 2 H[bAib]EGTFTSDVCSYLEGQAAKEFIAWLVK[bAib]R-NH2; disulfide I:11-II:11 (inferred); not fully specified; reading uncertain; also: disulfide-linked homodimer)
Hypoglycemic duration (days): 4
//
Substance: 2G8 series 58: disulfide-linked homodimer of monomer SEQ ID NO: 58 (HAEGTFTCDVSSYLEGQAAXEFIAWLVRGRG; disulfide-linked homodimer; Sequence is synthesized; (20)..(20) Xaa is 26Lys[N-e-(N-a-oleoyl-L-g-glutamyl)]; (31)..(31) C-terminal)
Hypoglycemic duration (days): 3
//
Substance: 2G4 series 38: disulfide-linked homodimer of monomer SEQ ID NO: 38 (HXEGTFTSDVSCYLEGQAAXEFIAWLVRGRG; disulfide-linked homodimer; Sequence is synthesized; (2)..(2) Xaa is bAib; (20)..(20) Xaa is 26Lys[N-e-(N-a-oleoyl-L-g-glutamyl)]; (31)..(31) N-terminal)
Hypoglycemic duration (days): 17

---

# System: Normal Kunming (KM) mice
# Assay summary: multiple OGTT (mOGTT): hypoglycemic duration after a single administration
# Type: in vivo
# Test parameters: monomeric peptides, single injection at the same dose (1.126 nmol), subcutaneous
Non-standard residues stand in square brackets, D forms with d. No end group written: not given here. Aib = CC(C)(N)C(=O)O; βAla = NCCC(=O)O
Below, each entry is listed alongside its reported Hypoglycemic.
Observed property: Hypoglycemic

Substance: His-Ala-Glu-Gly-Thr-Phe-Thr-Ser-Asp-Val-Cys-Ser-Tyr-Leu-Glu-Gly-Gln-Ala-Ala-Lys[N-ϵ-(N-α-Palmitoyl-L-γ-glutamyl)]-Glu-Phe-Ile-Ala-Trp-Leu-Val-Arg-Gly-Arg-Gly-NH2 (HAEGTFTSDVCSYLEGQAAXEFIAWLVRGRG; palmitoyl-γ-glutamyl on Lys; C-terminal amide; Sequence is synthesized; (20)..(20) Xaa is Xaa is 26Lys[N-e-(N-a-Palmitoyl-g-glutamyl)]; (31)..(31) N-terminal) [G2 series 8]
Result: 5 days
//
Substance: His-Ala-Glu-Gly-Thr-Phe-Thr-Ser-Asp-Val-Ser-Cys-Tyr-Leu-Glu-Gly-Gln-Ala-Ala-Lys[N-ϵ-(N-α-Palmitoyl-L-γ-glutamyl)]-Glu-Phe-Ile-Ala-Trp-Leu-Val-Arg-Gly-Arg-Gly-NH2 (HAEGTFTSDVSCYLEGQAAXEFIAWLVRGRG; palmitoyl-γ-glutamyl on Lys; C-terminal amide; Sequence is synthesized; (20)..(20) Xaa is 26Lys[N-e-(N-a-palmitoyl-L-g-glutamyl)]; (31)..(31) N-terminal) [G3 series 22]
Result: 6 days
//
Substance: His-aAib-Glu-Gly-Thr-Phe-Thr-Ser-Asp-Val-Ser-Cys-Tyr-Leu-Glu-Gly-Gln-Ala-Ala-Lys-Glu-Phe-Ile-Ala-Trp-Leu-Val-Lys-aAib-Arg-NH2 (H[Aib]EGTFTSDVSCYLEGQAAKEFIAWLVK[Aib]R-NH2; also: disulfide-linked homodimer via Cys) [G7 series 53]
Result: 3 days
//
Substance: His-βAla-Glu-Gly-Thr-Phe-Thr-Ser-Asp-Val-Cys-Ser-Tyr-Leu-Glu-Gly-Gln-Ala-Ala-Lys[N-ϵ-(N-α-oleoyl)]-Glu-Phe-Ile-Ala-Trp-Leu-Val-Arg-Gly-Arg-Gly-NH2 (HXEGTFTSDVCSYLEGQAAXEFIAWLVRGRG; β-amino acid; oleoyl on Lys; C-terminal amide; Sequence is synthesized; (2)..(2) Xaa is bAla; (20)..(20) Xaa is 26Lys[N-e-(N-a-oleoyl-L-g-glutamyl)]; (31)..(31) N-terminal) [G4 series 31]
Result: 5 days
//
Substance: His-βAla-Glu-Gly-Thr-Phe-Thr-Ser-Asp-Val-Ser-Cys-Tyr-Leu-Glu-Gly-Gln-Ala-Ala-Lys-Glu-Phe-Ile-Ala-Trp-Leu-Val-Arg-βAla-Arg-NH2 (H[βAla]EGTFTSDVSCYLEGQAAKEFIAWLVR[βAla]R-NH2; also: disulfide-linked homodimer via Cys12) [G7 series 55]
Result: 2 days

---

# Tested on: Normal Kunming (KM) mice
# Assay summary: multiple OGTT (mOGTT): hypoglycemic duration after a single administration
# Assay type: in vivo
# Test parameters: monomeric peptides, single injection at the same dose (1.126 nmol), subcutaneous

Substance: His-Ala-Glu-Gly-Thr-Phe-Thr-Ser-Asp-Val-Ser-Cys--Tyr-Leu-Glu-Gly-Gln-Ala-Ala-Lys[N-ϵ-(N-α-oleoyl-L-γ-glutamyl)]-Glu-Phe-Ile-Ala-Trp-Leu-Val-Arg-Gly-Arg-Gly-NH2 (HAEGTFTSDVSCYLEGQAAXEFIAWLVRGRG; oleoyl-γ-glutamyl on Lys; C-terminal amide; Sequence is synthesized; (20)..(20) Xaa is 26Lys[N-e-(N-a-oleoyl-L-g-glutamyl)]; (31)..(31) N-terminal) [G3 series 23]
U: days
Hypoglycemic: 7
--
Substance: His-Ala-Glu-Gly-Thr-Phe-Thr-Ser-Asp-Val-Cys-Ser-Tyr-Leu-Glu-Gly-Gln-Ala-Ala-Lys[N-ϵ-(N-α-oleoyl)]-Glu-Phe-Ile-Ala-Trp-Leu-Val-Arg-Gly-Arg-Gly-OH (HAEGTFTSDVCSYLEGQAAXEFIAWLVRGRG; oleoyl on Lys; C-terminal acid; Sequence is synthesized; (20)..(20) Xaa is 26Lys[N-e-(N-a-oleoyl-L-g-glutamyl)]; (31)..(31) C-terminal) [G4 series 26]
U: days
Hypoglycemic: 4
--
Substance: His-Ala-Glu-Gly-Thr-Phe-Thr-Ser-Asp-Val-Ser-Cys-Tyr-Leu-Glu-Gly-Gln-Ala-Ala-Lys[N-ϵ-(N-α-oleoyl-L-γ-glutamyl)]-Glu-Phe-Ile-Ala-Trp-Leu-Val-Arg-Gly-Arg-Gly-OH (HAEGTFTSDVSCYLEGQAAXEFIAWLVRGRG; oleoyl-γ-glutamyl on Lys; C-terminal acid; Sequence is synthesized; (20)..(20) Xaa is 26Lys[N-e-(N-a-oleoyl-L-g-glutamyl)]; (31)..(31) C-terminal) [G3 series 21]
U: days
Hypoglycemic: 4

---

# Tested on: Normal Kunming (KM) mice
# Assay summary: multiple OGTT (mOGTT): hypoglycemic duration after a single administration
# Assay type: in vivo
# Test parameters: monomeric peptides, single injection at the same dose (1.126 nmol), subcutaneous
Non-standard residues stand in square brackets, D forms with d. No end group written: not given here. βAib = beta-Aib residue; Aib = CC(C)(N)C(=O)O
Below, each entry is listed alongside its reported Hypoglycemic.
Observed property: Hypoglycemic (days)

Substance: His-βAib-Glu-Gly-Thr-Phe-Thr-Ser-Asp-Val-Cys-Ser-Tyr-Leu-Glu-Gly-Gln-Ala-Ala-Lys-Glu-Phe-Ile-Ala-Trp-Leu-Val-Arg-βAib-Arg-NH2 (H[βAib]EGTFTSDVCSYLEGQAAKEFIAWLVR[βAib]R-NH2; also: disulfide-linked homodimer via Cys) [G2 series 16]
Observed property: Hypoglycemic
Measured number: 3
//
Substance: His-Ala-Glu-Gly-Thr-Phe-Thr-Ser-Asp-Val-Ser-Cys-Tyr-Leu-Glu-Gly-Gln-Ala-Ala-Lys-Glu-Phe-Ile-Ala-Trp-Leu-Val-Arg-Gly-Arg-NH-PEG (HAEGTFTSDVSCYLEGQAAKEFIAWLVRGR; not fully specified; C-terminal PEG; Sequence is synthesized; (30)..(30) N-terminal is modified with PEG) [G9 series 71]
Observed property: Hypoglycemic
Measured number: 3
//
Substance: His-Ala-Glu-Gly-Thr-Phe-Thr-Cys-Asp-Val-Ser-Ser-Tyr-Leu-Glu-Gly-Gln-Ala-Ala-Lys[N-α-(N-α-oleoyl-L-γ-glutamyl)]-Glu-Phe-Ile-Ala-Trp-Leu-Val-Arg-Gly-Arg-Gly-NH2 (HAEGTFTCDVSSYLEGQAAXEFIAWLVRGRG; oleoyl-gamma-Glu on Lys; C-terminal amide; Sequence is synthesized; (20)..(20) Xaa is 26Lys[N-e-(N-a-oleoyl-L-g-glutamyl)]; (31)..(31) N-terminal) [G8 series 59]
Observed property: Hypoglycemic
Measured number: 3
//
Substance: His-aAib-Glu-Gly-Thr-Phe-Thr-Ser-Asp-Val-Ser-Cys-Tyr-Leu-Glu-Gly-Gln-Ala-Ala-Lys-Glu-Phe-Ile-Ala-Trp-Leu-Val-Arg-aAib-Arg-NH2 (H[Aib]EGTFTSDVSCYLEGQAAKEFIAWLVR[Aib]R-NH2; also: disulfide-linked homodimer via Cys) [G7 series 51]
Observed property: Hypoglycemic
Measured number: 3
